// reported Intestines for each item listed
# Test system: PC-3 PIP/flu tumor-bearing mice
# measurement.notes: Biodistribution studies in PC-3 PIP/flu tumor-bearing mice
# measurement.context: 4 h p.i.
Reply numerically in % IA/g, unit not repeated.

1) Cc1ccc(CCCC(=O)NCCCCC(NC(=O)CN2CCN(CC(=O)O)CCN(CC(=O)O)CCN(CC(=O)O)CC2)C(=O)NCC2CCC(C(=O)NC(Cc3ccc4ccccc4c3)C(=O)NCCCCC(NC(=O)NC(CCC(=O)O)C(=O)O)C(=O)O)CC2)cc1 (stereo not shown) [44Sc-PSMA-ALB-06, metal not drawn]	2.50
2) Cc1ccc(CCCC(=O)NCCCCC(NC(=O)CN2CCN(CC(=O)O)CCN(CC(=O)O)CCN(CC(=O)O)CC2)C(=O)NCC2CCC(C(=O)NC(Cc3ccc4ccccc4c3)C(=O)NCCCCC(NC(=O)NC(CCC(=O)O)C(=O)O)C(=O)O)CC2)cc1 (stereo not shown) [^177Lu-PSMA-ALB-06, metal not drawn]	2.64
3) O=C(O)CCC(NC(=O)NC(CCCCNC(=O)C(Cc1ccc2ccccc2c1)NC(=O)C1CCC(CNC(=O)C(CCCCNC(=O)CCCc2ccc(I)cc2)NC(=O)CN2CCN(CC(=O)O)CCN(CC(=O)O)CCN(CC(=O)O)CC2)CC1)C(=O)O)C(=O)O (stereo not shown) [^177Lu-PSMA-ALB-03, metal not drawn]	3.71
4) Cc1ccc(CCCC(=O)NC(CC(=O)NC(CC(=O)NC(CC(=O)NC(CCCCNC(=O)CN2CCN(CC(=O)O)CCN(CC(=O)O)CCN(CC(=O)O)CC2)C(=O)NCC2CCC(C(=O)NC(Cc3ccc4ccccc4c3)C(=O)NCCCCC(NC(=O)NC(CCC(=O)O)C(=O)O)C(=O)O)CC2)C(=O)O)C(=O)O)C(=O)O)cc1 (stereo not shown) [^177Lu-PSMA-ALB-08, metal not drawn]	0.20
5) O=C(O)CCC(NC(=O)NC(CCCCNC(=O)C(Cc1ccc2ccccc2c1)NC(=O)C1CCC(CNC(=O)C(CCCCNC(=O)CN2CCN(CC(=O)O)CCN(CC(=O)O)CCN(CC(=O)O)CC2)NC(=O)CC(NC(=O)CC(NC(=O)CC(NC(=O)CCCc2ccc(I)cc2)C(=O)O)C(=O)O)C(=O)O)CC1)C(=O)O)C(=O)O (stereo not shown) [^177Lu-PSMA-ALB-07, metal not drawn]	1.27

Data request: Need Intestines, item O=C(O)CCC(NC(=O)NC(CCCCNC(=O)C(Cc1ccc2ccccc2c1)NC(=O)C1CCC(CNC(=O)C(CCCCNC(=O)CN2CCN(CC(=O)O)CCN(CC(=O)O)CCN(CC(=O)O)CC2)NC(=O)CC(NC(=O)CC(NC(=O)CCCc2ccc(I)cc2)C(=O)O)C(=O)O)CC1)C(=O)O)C(=O)O (stereo not shown) [^177Lu-PSMA-ALB-05, metal not drawn]
Data returned: 1.33

Data request: Same for O=C(O)CCC(NC(=O)NC(CCCCNC(=O)C(Cc1ccc2ccccc2c1)NC(=O)C1CCC(n2cc(CC(NC(=O)CN3CCN(CC(=O)O)CCN(CC(=O)O)CCN(CC(=O)O)CC3)C(=O)NC(CCCCNC(=O)CCCc3ccc(I)cc3)C(=O)O)nn2)CC1)C(=O)O)C(=O)O (stereo not shown) [^177Lu-PSMA-ALB-01, metal not drawn]
Data returned: 4.17
